molecular target: Solute carrier family 15 member 1 (Homo sapiens, UniProt P46059); assay: TP_TRANSPORTER: inhibition of Gly-Sar uptake, L-form (Gly-Sar: 20 uM) in PEPT1-expressing CHO cells; assay type: functional, cell-based
ASSAY METRIC: pIC50
Reminder that pIC50 is minus the log10 of a molar concentration.

Q: Please look at this compound and report its pIC50: CC(C)[C@H](N)C(=O)OCCOCn1cnc2c(=O)[nH]c(N)nc21 [VALACYCLOVIR]
Ans: 2.96

----------
biological target: Solute carrier family 15 member 1 (Homo sapiens); assay: TP_TRANSPORTER: inhibition of Gly-Sar uptake, D-form (Gly-Sar: 20 uM) in PEPT1-expressing CHO cells; assay type: functional, cell-based
ASSAY METRIC: pIC50
Expect pIC50 as a plain number equal to -log10 of the molar concentration.

Q: Note pIC50 for the compound shown: CC(C)[C@H](N)C(=O)OCCOCn1cnc2c(=O)[nH]c(N)nc21 [VALACYCLOVIR]
Ans: 2.47

----------
# IC50 listing for each entry below
Target: Solute carrier family 15 member 1 (Homo sapiens, UniProt P46059)
Sequence (P46059 whole entry): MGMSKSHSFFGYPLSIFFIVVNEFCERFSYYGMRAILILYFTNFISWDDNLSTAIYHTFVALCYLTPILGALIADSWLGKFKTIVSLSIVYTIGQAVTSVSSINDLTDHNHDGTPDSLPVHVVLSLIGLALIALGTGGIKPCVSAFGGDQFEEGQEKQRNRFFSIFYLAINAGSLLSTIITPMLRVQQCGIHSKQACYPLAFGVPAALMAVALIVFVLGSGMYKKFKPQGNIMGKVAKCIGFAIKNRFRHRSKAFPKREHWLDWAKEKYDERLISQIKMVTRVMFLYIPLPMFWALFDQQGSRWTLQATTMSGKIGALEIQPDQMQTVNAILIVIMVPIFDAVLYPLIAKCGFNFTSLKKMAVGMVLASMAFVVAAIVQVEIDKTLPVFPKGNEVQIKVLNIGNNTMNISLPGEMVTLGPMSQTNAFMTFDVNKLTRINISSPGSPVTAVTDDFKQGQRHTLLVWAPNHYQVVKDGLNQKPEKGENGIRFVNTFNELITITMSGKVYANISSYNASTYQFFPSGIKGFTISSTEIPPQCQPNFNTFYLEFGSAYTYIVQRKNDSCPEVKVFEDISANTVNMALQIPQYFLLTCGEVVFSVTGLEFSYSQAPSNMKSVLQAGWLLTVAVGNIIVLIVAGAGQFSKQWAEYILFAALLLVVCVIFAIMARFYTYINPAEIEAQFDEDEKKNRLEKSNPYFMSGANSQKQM
Test: TP_TRANSPORTER: inhibition of Gly-Sar uptake (Gly-Sar: 20 uM) in PEPT1-expressing CHO cells
Type: functional, cell-based
Answer format: numeric, mM implied, no suffix.

CC1=C(C(=O)O)N2C(=O)[C@@H](NC(=O)[C@H](N)C3=CCC=CC3)[C@H]2SC1 | 15
NCC(=O)OCCOCn1cnc2c(=O)[nH]c(N)nc21 | 1.4
CCOC(=O)[C@H](CCc1ccccc1)N[C@@H](C)C(=O)N1CCC[C@H]1C(=O)O | 15

Now for another entry.
Q: Please give measured IC50 of the following entry: `CC(C)[C@H](N)C(=O)OCCOCn1cnc2c(=O)[nH]c(N)nc21`
Ans: 0.4
